Consider the following compounds; for each one, report its composite z-score.
Tested on: XIP peptide (Xip251-270) binding
assay_explanation: small-molecule binders of XIP peptide, primary screen, biochemical, small-molecule microarray, fluorescence 635/667 nm, 0.1 µg/mL protein (AID 1182)
condition_label: fluorescent protein binding, 635 nm, higher = more signal, called active from +8 up or from −8 down
// no unit string in output, number only

Lab entry: XIP peptide (Xip251-270) binding assay, compound CC(C)N1C(=O)[C@@]2(c3ccc([N+](=O)[O-])cc3)CC(=O)N(CC34CC5CC(CC(C5)C3)C4)[C@@H]2c2ccc(CO)cc21 , composite z-score = -0.43

Lab entry: XIP peptide (Xip251-270) binding assay, compound COc1ccc(CCNC(=O)[C@@]2(c3ccc([N+](=O)[O-])cc3)CC(=O)N(CC34CC5CC(CC(C5)C3)C4)[C@@H]2c2ccc(CO)cc2)cc1 , composite z-score = 0.349

Lab entry: XIP peptide (Xip251-270) binding assay, compound N#Cc1ccc(NN2C(C(O)c3cccs3)C=CC3C(=O)N(c4ccccc4)C(=O)C32)cc1 (centres undefined) , composite z-score = 0.529

Lab entry: XIP peptide (Xip251-270) binding assay, compound C=CCC(OC(C)=O)[C@@H]1[C@@H](N(Cc2ccc(-c3ccccc3)cc2)C(=O)Cc2ccc(OC)cc2)c2cc(OCCCO)ccc2N1C(=O)c1ccc2ccccc2n1 (some centres undefined) , composite z-score = 0.0404

* * *

study_system: Neurogenic locus notch homolog protein 3 (Homo sapiens) (UniProt Q9UM47)
Sequence (Q9UM47 whole entry, looked up): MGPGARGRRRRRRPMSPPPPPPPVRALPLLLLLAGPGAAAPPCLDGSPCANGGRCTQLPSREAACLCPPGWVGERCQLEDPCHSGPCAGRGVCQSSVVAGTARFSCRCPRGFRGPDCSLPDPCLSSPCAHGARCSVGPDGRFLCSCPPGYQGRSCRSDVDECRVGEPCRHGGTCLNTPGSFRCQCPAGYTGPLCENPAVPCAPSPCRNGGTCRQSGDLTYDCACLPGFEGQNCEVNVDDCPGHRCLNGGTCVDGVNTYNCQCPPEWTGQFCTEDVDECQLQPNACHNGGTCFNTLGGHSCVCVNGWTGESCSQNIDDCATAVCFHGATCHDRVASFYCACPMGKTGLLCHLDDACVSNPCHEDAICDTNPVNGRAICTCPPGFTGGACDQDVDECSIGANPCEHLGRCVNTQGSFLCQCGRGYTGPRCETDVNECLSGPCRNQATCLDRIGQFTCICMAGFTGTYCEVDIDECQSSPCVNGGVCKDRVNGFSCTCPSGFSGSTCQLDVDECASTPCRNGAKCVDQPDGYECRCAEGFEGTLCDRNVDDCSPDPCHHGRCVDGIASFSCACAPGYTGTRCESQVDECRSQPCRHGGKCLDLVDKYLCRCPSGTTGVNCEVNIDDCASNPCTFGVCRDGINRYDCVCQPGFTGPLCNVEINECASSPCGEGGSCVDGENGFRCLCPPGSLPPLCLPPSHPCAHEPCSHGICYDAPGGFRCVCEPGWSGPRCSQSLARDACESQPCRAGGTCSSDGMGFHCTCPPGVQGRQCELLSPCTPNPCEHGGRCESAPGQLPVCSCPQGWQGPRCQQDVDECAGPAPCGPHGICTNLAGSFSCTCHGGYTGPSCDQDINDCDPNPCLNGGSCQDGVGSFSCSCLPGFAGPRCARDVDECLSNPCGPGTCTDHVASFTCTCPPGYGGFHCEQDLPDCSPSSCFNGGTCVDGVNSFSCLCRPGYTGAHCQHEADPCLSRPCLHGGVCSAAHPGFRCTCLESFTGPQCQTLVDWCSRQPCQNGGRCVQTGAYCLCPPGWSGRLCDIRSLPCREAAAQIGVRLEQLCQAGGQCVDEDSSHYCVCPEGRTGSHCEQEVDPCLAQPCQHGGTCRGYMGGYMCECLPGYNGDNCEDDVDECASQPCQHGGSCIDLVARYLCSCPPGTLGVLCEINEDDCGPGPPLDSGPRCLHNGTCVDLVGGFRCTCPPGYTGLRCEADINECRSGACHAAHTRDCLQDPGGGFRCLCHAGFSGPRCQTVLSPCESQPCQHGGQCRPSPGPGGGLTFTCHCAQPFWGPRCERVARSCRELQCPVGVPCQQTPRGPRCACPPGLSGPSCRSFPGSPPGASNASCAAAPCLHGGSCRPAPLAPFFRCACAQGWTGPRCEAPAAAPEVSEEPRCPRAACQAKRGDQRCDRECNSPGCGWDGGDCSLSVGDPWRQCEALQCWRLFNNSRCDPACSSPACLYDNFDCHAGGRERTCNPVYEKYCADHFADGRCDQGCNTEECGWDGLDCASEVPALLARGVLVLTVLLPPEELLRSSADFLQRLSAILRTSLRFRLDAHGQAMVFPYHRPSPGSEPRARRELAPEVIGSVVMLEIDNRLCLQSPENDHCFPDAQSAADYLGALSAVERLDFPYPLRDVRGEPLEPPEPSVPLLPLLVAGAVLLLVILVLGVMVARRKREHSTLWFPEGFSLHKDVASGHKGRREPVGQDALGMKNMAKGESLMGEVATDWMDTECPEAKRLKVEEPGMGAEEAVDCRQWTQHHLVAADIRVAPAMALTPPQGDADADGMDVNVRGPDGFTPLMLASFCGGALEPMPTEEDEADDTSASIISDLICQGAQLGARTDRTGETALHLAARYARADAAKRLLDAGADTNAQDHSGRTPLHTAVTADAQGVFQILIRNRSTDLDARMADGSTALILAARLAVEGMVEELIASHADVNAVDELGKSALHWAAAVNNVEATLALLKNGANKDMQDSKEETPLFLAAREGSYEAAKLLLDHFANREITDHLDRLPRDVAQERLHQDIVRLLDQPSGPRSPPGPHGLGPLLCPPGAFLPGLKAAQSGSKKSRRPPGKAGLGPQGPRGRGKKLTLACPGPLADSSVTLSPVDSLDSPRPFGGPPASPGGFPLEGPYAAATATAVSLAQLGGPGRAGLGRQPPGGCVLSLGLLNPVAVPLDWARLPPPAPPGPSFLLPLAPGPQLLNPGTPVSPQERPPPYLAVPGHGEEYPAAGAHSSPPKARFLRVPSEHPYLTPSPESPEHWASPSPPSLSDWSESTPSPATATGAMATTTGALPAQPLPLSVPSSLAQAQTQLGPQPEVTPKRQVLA
assay_explanation: NOTCH3 binders on small-molecule microarray, primary screen, biochemical, 635/667 nm fluorescence (AID 1096)
condition_label: NOTCH3 binding, 635 nm fluorescence, higher = more signal
Use 0.3 as the dividing line for composite z-score, with the line itself on the 1 (yes) side and lower values as 0 (no).

Please check the record CCOC(=O)C[C@H]1[C@H](OC(=O)Cc2ccc3c(c2)OCO3)[C@@H](NC(=O)C2CCCCC2)c2cc(OCCCO)ccc2N1C(=O)Cc1ccc(OC)cc1 and state if its composite z-score is at or above 0.3. 1 (yes)

Please check the record O=C1OCC=C[C@H]2OC34C=CCN(c5ccc(Cl)cc5)C(=O)[C@H]3N(CCCCCCO)C(=O)[C@@H]4[C@@H]12 (some centres undefined) and state if its composite z-score is at or above 0.3. 0 (no)

Please check the record COc1cc(CO)ccc1OC(C)=O and state if its composite z-score is at or above 0.3. 1 (yes)

Please check the record O=C1OCCC=C[C@H]2OC34C=CCN(c5ccc6ccccc6c5)C(=O)[C@H]3N(CCCCCO)C(=O)[C@@H]4C12 (some centres undefined) and state if its composite z-score is at or above 0.3. 0 (no)

Please check the record O=C1O[C@H](c2ccccc2)[C@H](c2ccccc2)N2[C@H]1[C@@H](C(=O)Nc1nc3ccccc3s1)[C@]1(C(=O)Nc3ccccc31)[C@H]2c1ccc(O)cc1 and state if its composite z-score is at or above 0.3. 1 (yes)

Please check the record CCOC(=O)C[C@H]1[C@H](OC(=O)c2ccc(-c3ccccc3)cc2)[C@@H](NC(=O)Cc2ccc(OC)cc2)c2cc(OCCCO)ccc2N1C(=O)c1ccc2ccccc2n1 and state if its composite z-score is at or above 0.3. 1 (yes)

Please check the record O=c1oc(-c2ccccc2)nc2cc(Br)ccc12 and state if its composite z-score is at or above 0.3. 1 (yes)

Please check the record COC(=O)[C@@]1(Cc2ccc(OC)cc2)[C@H]2c3cc(C(=O)N(C)C)n(Cc4c(OC)[nH]cc(C)c4=O)c3C[C@H]2CN1C(=O)c1ccccc1 and state if its composite z-score is at or above 0.3. 0 (no)

Please check the record COCCOC(=O)N1C(=O)[C@@]2(c3cc(C#CCCO)ccc31)[C@H](c1ccccc1OCCO)N1[C@H](c3ccccc3)[C@H](c3ccccc3)OC(=O)[C@H]1[C@@H]2C(=O)N1CCN(c2ncccn2)CC1 and state if its composite z-score is at or above 0.3. 1 (yes)

* * *

assay_explanation: yeast growth modulation, basal conditions, primary screen, YJM789 clinical isolate, OD600, 24 h (AID 1089);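 further: growth of clinical yeast isolate S. cerevisiae YJM 789 seeded 1000 cells per well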
condition_label: S. cerevisiae YJM789 growth, higher = more signal, called active from +8 up or from −8 down
Consider the following compounds; for each one, report its z-score.
// no unit string in output, number only

Per the records, this compound ( COC(=O)[C@@]1(Cc2ccccc2N=[N+]=[N-])COC(c2ccc(OCCCO)cc2)=N1 ) has z-score equal to -1.33

Per the records, this compound ( COCCOC(=O)N1C(=O)[C@@]2(c3cc(C#CCNC(N)=O)ccc31)[C@H](c1ccccc1OCCO)N1[C@H](c3ccccc3)[C@H](c3ccccc3)OC(=O)[C@H]1[C@@H]2C(N)=O ) has z-score equal to 1.86

Per the records, this compound ( COc1ccc(C#Cc2ccc3c(c2)[C@]2(C(=O)N3)[C@H](c3ccc(O)cc3)N3[C@H](c4ccccc4)[C@H](c4ccccc4)OC(=O)[C@H]3[C@@H]2C(=O)NC[C@H](O)c2ccccc2)cc1 ) has z-score equal to 2.29

Per the records, this compound ( CCOC(=O)C1=CC[C@@H](c2ccccc2)N(S(=O)(=O)c2ccc(C)cc2)[C@H]1C(=O)OCC ) has z-score equal to 0.19

Per the records, this compound ( COc1ccc(C#Cc2ccc3c(c2)[C@]2(C(=O)N3)[C@H](c3ccc(O)cc3)N3[C@H](c4ccccc4)[C@H](c4ccccc4)OC(=O)[C@H]3[C@@H]2C(=O)N2CCCCCCC2)cc1 ) has z-score equal to -1.51

* * *

assay_explanation: splicing luciferase reporter signal modulators, primary screen, spliceosome inhibition project, cell-based, HEK293, splice +/- reporter (AID 1101);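 further: HEK293 cells carrying a splicing-competent luciferase reporter gene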
condition_label: luminescence, 24 h, higher = more signal, called active from +8 up or from −8 down
value_type: z-score
// no unit string in output, number only

Per the records, this compound ( COCCCNC(=O)[C@@]1(C)c2ccccc2C(=O)N(Cc2cc(C(F)(F)F)cc(C(F)(F)F)c2)[C@H]1c1ccc(CO)cc1 ) has z-score equal to 0.803

Per the records, this compound ( CC(=CC1CCCCC1)[C@@H](NC(=O)c1ccc(C(F)(F)F)cc1)c1ccc(-c2ccccc2)cc1 ) has z-score equal to -0.423

Per the records, this compound ( C#CCN(C(/C=C/c1ccccc1)CO)C(C(=O)O)c1ccccc1 (configuration not stated) ) has z-score equal to -1.89

Per the records, this compound ( CC(=O)NCCCC[C@@H]1NC(=O)[C@H]2C[C@@H](C(=O)NCCCCCC[N+](C)(C)C)[C@@H](c3cccc(OCCO)c3)N2C1=O ) has z-score equal to -1.6

Per the records, this compound ( C=CC[C@@]1(C(=O)NCC(O)CO)N=C(c2ccc(OCCCO)cc2)O[C@@H]1c1ccccc1N=[N+]=[N-] (some centres not stated) ) has z-score equal to -1.25

Per the records, this compound ( C=C(COC)C(=O)CC[C@H](OC(C)=O)c1cccc(OCCO)c1 ) has z-score equal to -0.637

Per the records, this compound ( COC(=O)C(CC#Cc1ccc2c(c1)[C@]1(C(=O)N2)[C@H](C(=O)NC[C@H](O)c2ccccc2)[C@H]2C(=O)O[C@H](c3ccccc3)[C@H](c3ccccc3)N2[C@@H]1c1ccc(OCCO)cc1)C(=O)OC ) has z-score equal to 0.0839

* * *

assay_explanation: mitochondrial membrane potential change in A549 cells, profiling panel, cell-based, JC-1 fluorescence, basal, 24 h, 100 nL (AID 1138);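 further: A549 lung adenocarcinoma cells under basal conditions with no added stimulus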
condition_label: higher = more signal
value_type: z-score
// no unit string in output, number only

Per the records, this compound ( CC(=O)Nc1cc(Br)ccc1C(=O)O ) has z-score equal to 0.204

Per the records, this compound ( COC(=O)C1=CC(CCCO)=CC(C2CC2)N(Cc2sc3ccccc3c2Cl)C=C1C(=O)OC (centres undefined) ) has z-score equal to 1.14

Per the records, this compound ( COC(=O)C(CC#Cc1ccc2c(c1)[C@]1(C(=O)N2)[C@H](c2ccc(OCCO)cc2)N2[C@H](c3ccccc3)[C@H](c3ccccc3)OC(=O)[C@H]2[C@@H]1C(=O)NC[C@H](O)c1ccccc1)C(=O)OC ) has z-score equal to -0.816

Per the records, this compound ( CCCCCN1CC=CC23O[C@@H]4/C=C\CCC(C)OC(=O)C4[C@H]2C(=O)N(CCCCCO)[C@@H]3C1=O (some centres undefined) ) has z-score equal to -0.108

Per the records, this compound ( Cc1ccc(S[C@]2(C(=O)NCc3ccccc3)CC(=O)N(Cc3ccccc3Cl)[C@@H]2c2ccc(CO)cc2I)cc1 ) has z-score equal to 0.00439

Per the records, this compound ( C=CCOC(=O)[C@@H]1[C@H]2C(=O)O[C@H](c3ccccc3)[C@H](c3ccccc3)N2[C@H](c2ccc(OCCOC(=O)[C@@H]3C[C@@H]4C(=O)N[C@@H](Cc5ccccc5)C(=O)N4[C@@H]3c3cccc(OCCO)c3)cc2)[C@@]12C(=O)Nc1ccc(I)cc12 ) has z-score equal to -0.917

Per the records, this compound ( O=c1oc(-c2ccccc2)nc2cc(Br)ccc12 ) has z-score equal to 0.112

Per the records, this compound ( COC(=O)C[C@H]1O[C@]2(C(=O)N(Cc3ccccc3)c3ccc(NC(C)=O)cc32)[C@@H](C)[C@@H]1[Si](C)(C)c1ccc(OC)cc1 ) has z-score equal to -0.922

Per the records, this compound ( CCCCC=C[C@@H](NC(=O)c1ccc(C(=O)OC)cc1)c1ccccc1 ) has z-score equal to 0.769
